Tested on: HCV 1a-H77 subgenomic replicon
assay.comment: microbe, parasite or virus in culture
Type: cell-based, HCV genotype 1a
conditions: Hepatitis C virus, stable replicon, strain 1a H77, 5% FBS, no human plasma; read-out: 1a H77 5% FBS EC50
Each entry below carries its reported EC50.
Give the number first and the unit second.

As a guide, the following entries are already answered.
compound	system.name	EC50
CS(=O)(=O)N(CCCCO)c1cc2oc(-c3ccc(F)cc3)c(C3=NOCN3)c2cc1C1CC1	HCV 1a-H77 subgenomic replicon	3.8 nM
CN(C)CCCN(c1cc2oc(-c3ccc(F)cc3)c(-c3ncc[nH]3)c2cc1C1CC1)S(C)(=O)=O	HCV 1a-H77 subgenomic replicon	85.1 nM
COCCN(c1cc2oc(-c3ccc(F)cc3)c(-c3ncc[nH]3)c2cc1C1CC1)S(C)(=O)=O	HCV 1a-H77 subgenomic replicon	81.7 nM

Ask | Missing value: EC50, HCV 1a-H77 subgenomic replicon, entry CS(=O)(=O)N(CCCCO)c1cc2oc(-c3ccc(F)cc3)c(-c3noc(=O)[nH]3)c2cc1C1CC1 . Fill in?
Reply | 1000 nM

Ask | How about this compound: CC(C)CCN(c1cc2oc(-c3ccc(F)cc3)c(-c3nc(C(F)(F)F)c[nH]3)c2cc1C1CC1)S(C)(=O)=O
Reply | 7620 nM

Ask | How about this compound: CCN(CC)CCN(c1cc2oc(-c3ccc(F)cc3)c(C3=NOCCN3)c2cc1C1CC1)S(C)(=O)=O
Reply | 80.9 nM

Ask | How about this compound: CC1NC(c2c(-c3ccc(F)cc3)oc3cc(N(CCCCO)S(C)(=O)=O)c(C4CC4)cc23)=NO1 (stereo not drawn)
Reply | 8 nM

Ask | How about this compound: CS(=O)(=O)N(CCCC(=O)N1CCCCC1)c1cc2oc(-c3ccc(F)cc3)c(-c3ncc[nH]3)c2cc1C1CC1
Reply | 31.9 nM

Ask | How about this compound: CS(=O)(=O)N(CC1CCNC1)c1cc2oc(-c3ccc(F)cc3)c(-c3ncc[nH]3)c2cc1C1CC1 (stereo not drawn)
Reply | 1000 nM

Ask | How about this compound: CC(O)CN(c1cc2oc(-c3ccc(F)cc3)c(-c3ncc[nH]3)c2cc1C1CC1)S(C)(=O)=O (stereo not drawn)
Reply | 158 nM

Ask | How about this compound: CS(=O)(=O)CCCCN(c1cc2oc(-c3ccc(F)cc3)c(C3=NOCN3)c2cc1C1CC1)S(C)(=O)=O
Reply | 4.1 nM

Ask | How about this compound: CS(=O)(=O)N(CCCS(=O)(=O)N1CCOCC1)c1cc2oc(-c3ccc(F)cc3)c(-c3ncc[nH]3)c2cc1C1CC1
Reply | 14.7 nM

Ask | How about this compound: CS(=O)(=O)N(CCC/C(N)=N/O)c1cc2oc(-c3ccc(F)cc3)c(C3=NOCCN3)c2cc1C1CC1
Reply | 55.7 nM

Ask | How about this compound: CS(=O)(=O)N(CCCCC(N)=O)c1cc2oc(-c3ccc(F)cc3)c(-c3ncc[nH]3)c2cc1C1CC1
Reply | 6.3 nM

Ask | How about this compound: CS(=O)(=O)N(CCCS(=O)(=O)c1ccccc1)c1cc2oc(-c3ccc(F)cc3)c(-c3ncc[nH]3)c2cc1C1CC1
Reply | 10.2 nM
